- assayed-system: ERβ LBD (Homo sapiens)
- Construct: pET28a+ vector containing ERβ LBD (residues from 261 to 500) along with an N-terminal His6-yBBr-TEV tag; His6 (N); yBBr (N); TEV cleavage site (N); made in house; host or cells: E. coli BL21(DE3) pLysS
- test-summary: Competition fluorescence polarization (FP) binding assay with FITC-ERL4 probe
- setup-conditions: Table 4; binding to ER LBD; estradiol 1 μM, FITC-ERL4 10 nM, ERβ LBD 200 nM; mean ± S.E.M, at least four replicates; read-out: EC50
pEC50: −log10 of the molar value. Starred links: 1 amine or outer side, 2 acyl side, 3 side chain; linkers in the order of their positions; H or OH if unused. Positions of bridges follow the written chain, without caps; N, C: chain ends. Non-standard residues stand in square brackets, D forms with d. Residues, ends and D or L forms follow the SMILES beside them. X1 = O=C([C@]1(CC=[*:3])CCCN1[*:1])[*:2]; S5 = C=CCCC[C@](C)(N)C(=O)O
property-measured: pEC50

CNC(=O)[C@@H](NC(=O)[C@H](CC(C)C)NC(=O)[C@H](CC(C)C)NC(=O)[C@H](Cc1ccc(O)cc1)NC(=O)[C@]1(C)CCCC=CC[C@]2(CCCN2C(C)=O)C(=O)N[C@@H](CC(C)C)C(=O)N[C@@H](CC(C)C)C(=O)N1)[C@@H](C)O [PLL5-10, Ac-PL3-Leu-Leu-S5-Tyr-Leu-Leu-Thr-NHMe] (Ac-[X1]LL[S5]YLLT-NHMe; staple 1-4)    5.82

---

Starred links: 1 amine or outer side, 2 acyl side, 3 side chain; linkers in the order of their positions; H or OH if unused. Positions of bridges follow the written chain, without caps; N, C: chain ends. Non-standard residues stand in square brackets, D forms with d. Residues, ends and D or L forms follow the SMILES beside them. X1 = O=C([C@]1(CC=[*:3])CCCN1[*:1])[*:2]; S5 = C=CCCC[C@](C)(N)C(=O)O
property-measured: PAMPA Pe

CNC(=O)[C@H](CC(=O)O)NC(=O)[C@H](Cc1c[nH]cn1)NC(=O)[C@H](CC(C)C)NC(=O)[C@H](CC(C)C)NC(=O)[C@H](CCCNC(=N)N)NC(=O)[C@]1(C)CCCC=CC[C@]2(CCCN2C(C)=O)C(=O)N[C@@H](CC(C)C)C(=O)N[C@@H](CC(C)C)C(=O)N1 [PLL7-9] (Ac-[X1]LL[S5]RLLHD-NHMe; staple 1-4)    1.1 ± 0.2 (×10^−6) cm/sec
CNC(=O)[C@H](Cc1ccc(O)cc1)NC(=O)[C@@H](NC(=O)[C@H](CC(C)C)NC(=O)[C@H](CC(C)C)NC(=O)[C@H](CC(N)=O)NC(=O)[C@]1(C)CCCC=CC[C@]2(CCCN2C(C)=O)C(=O)N[C@@H](CCCCN)C(=O)N[C@@H](CC(C)C)C(=O)N1)[C@@H](C)O [PLL4-5] (Ac-[X1]KL[S5]NLLTY-NHMe; staple 1-4)    0.7 ± 0.2 (×10^−6) cm/sec
CNC(=O)[C@H](CC(=O)O)NC(=O)[C@H](CC(=O)O)NC(=O)[C@H](CC(C)C)NC(=O)[C@H](CC(C)C)NC(=O)[C@H](Cc1ccc(O)cc1)NC(=O)[C@]1(C)CCCC=CC[C@]2(CCCN2C(C)=O)C(=O)N[C@@H](CC(C)C)C(=O)N[C@@H](CC(C)C)C(=O)N1 [PLL5-2] (Ac-[X1]LL[S5]YLLDD-NHMe; staple 1-4)    1.6 ± 0.1 (×10^−6) cm/sec

---

- assayed-system: ERβ LBD (Homo sapiens, UniProt Q92731)
- Construct: pET28a+ vector containing ERβ LBD (residues from 261 to 500) along with an N-terminal His6-yBBr-TEV tag; His6 (N); yBBr (N); TEV cleavage site (N); made in house; host or cells: E. coli BL21(DE3) pLysS
- test-summary: Competition fluorescence polarization (FP) binding assay with FITC-ERL4 probe
- setup-conditions: Table 4; binding to ER LBD; estradiol 1 μM, FITC-ERL4 10 nM, ERβ LBD 200 nM; mean ± S.E.M, at least four replicates; read-out: EC50
pEC50: −log10 of the molar value. Starred links: 1 amine or outer side, 2 acyl side, 3 side chain; linkers in the order of their positions; H or OH if unused. Positions of bridges follow the written chain, without caps; N, C: chain ends. Non-standard residues stand in square brackets, D forms with d. Residues, ends and D or L forms follow the SMILES beside them. X1 = O=C([C@]1(CC=[*:3])CCCN1[*:1])[*:2]; S5 = C=CCCC[C@](C)(N)C(=O)O
property-measured: pEC50

CNC(=O)[C@H](CC(=O)O)NC(=O)[C@H](CC(C)C)NC(=O)[C@H](CC(C)C)NC(=O)[C@H](CCCNC(=N)N)NC(=O)[C@]1(C)CCCC=CC[C@]2(CCCN2C(C)=O)C(=O)N[C@@H](CC(C)C)C(=O)N[C@@H](CC(C)C)C(=O)N1 [PLL5-8, Ac-PL3-Leu-Leu-S5-Arg-Leu-Leu-Asp-NHMe] (Ac-[X1]LL[S5]RLLD-NHMe; staple 1-4)    5.10
CNC(=O)[C@H](CC(=O)O)NC(=O)[C@H](CC(=O)O)NC(=O)[C@H](CC(C)C)NC(=O)[C@H](CC(C)C)NC(=O)[C@H](Cc1ccc(O)cc1)NC(=O)[C@]1(C)CCCC=CC[C@]2(CCCN2C(C)=O)C(=O)N[C@@H]([C@@H](C)O)C(=O)N[C@@H](CC(C)C)C(=O)N1 (single isomer, unassigned)    < 5.00
CNC(=O)[C@H](Cc1c[nH]cn1)NC(=O)[C@H](CC(C)C)NC(=O)[C@H](CC(C)C)NC(=O)[C@H](Cc1ccc(O)cc1)NC(=O)[C@]1(C)CCCC=CC[C@]2(CCCN2C(C)=O)C(=O)N[C@@H](CC(C)C)C(=O)N[C@@H](CC(C)C)C(=O)N1 (single isomer, unassigned)    < 5.00

---

- test-summary: CHI Log D measurement (chromatographic hydrophobicity index)
- setup-conditions: pH 7.4
Non-standard residues stand in square brackets, D forms with d. Residues, ends and D or L forms follow the SMILES beside them. αAllylPro = C=CC[C@@]1(C(=O)O)CCCN1; S5 = C=CCCC[C@](C)(N)C(=O)O
Response key: Satisfied means chromatographic logD >= 2; Not satisfied means chromatographic logD < 2.

CNC(=O)[C@H](CC(N)=O)NC(=O)[C@H](CC(N)=O)NC(=O)[C@H](CC(C)C)NC(=O)[C@H](CC(C)C)NC(=O)[C@H](CC1CC1)NC(=O)[C@]1(C)CCCC=CC[C@]2(CCCN2C(C)=O)C(=O)N[C@@H](C)C(=O)N[C@@H](CC(C)C)C(=O)N1 (single isomer, unassigned) [PLL7-11]    Satisfied
CNC(=O)[C@H](CC(=O)O)NC(=O)[C@H](CC(C)C)NC(=O)[C@H](CC(C)C)NC(=O)[C@H](Cc1ccc(O)cc1)NC(=O)[C@]1(C)CCCC=CC[C@]2(CCCN2C(C)=O)C(=O)N[C@@H]([C@@H](C)O)C(=O)N[C@@H](CC(C)C)C(=O)N1 (single isomer, unassigned) [PLL5-5, Ac-PL3-Thr-Leu-S5-Tyr-Leu-Leu-Asp-NHMe]    Not satisfied
CCCC[C@H](NC(=O)[C@H](CC(C)C)NC(=O)[C@]1(C)CCCC=CC[C@]2(CCCN2C(C)=O)C(=O)N[C@@H](C)C(=O)N[C@@H](CC(C)C)C(=O)N1)C(=O)N[C@@H](CC(C)C)C(=O)N[C@@H](C)C(=O)N[C@@H](Cc1ccc(O)cc1)C(=O)NC (single isomer, unassigned) [PLL4-6]    Satisfied
CNC(=O)[C@H](CC(=O)O)NC(=O)[C@H](CCC(N)=O)NC(=O)[C@H](CC(C)C)NC(=O)[C@H](CC(C)C)NC(=O)[C@H](Cc1ccc(O)cc1)NC(=O)[C@]1(C)CCCC=CC[C@]2(CCCN2C(C)=O)C(=O)N[C@@H](C)C(=O)N[C@@H](CC(C)C)C(=O)N1 (single isomer, unassigned) [PLL7-8]    Not satisfied
C=CCCC[C@](C)(NC(=O)[C@H](CC(C)C)NC(=O)[C@H](CC(C)C)NC(=O)[C@]1(CC=C)CCCN1C(C)=O)C(=O)N[C@@H](CCCNC(=N)N)C(=O)N[C@@H](CC(C)C)C(=O)N[C@@H](CC(C)C)C(=O)N[C@@H](Cc1c[nH]cn1)C(=O)N[C@@H](CC(=O)O)C(=O)NC [PLL7-9 variant 5] (Ac-[αAllylPro]LL[S5]RLLHD-NHMe)    Satisfied
CNC(=O)[C@H](CC(=O)O)NC(=O)[C@H](CC(C)C)NC(=O)[C@H](CC(C)C)NC(=O)[C@H](Cc1ccc(O)cc1)NC(=O)[C@]1(C)CCCC=CC[C@]2(CCCN2C(C)=O)C(=O)N[C@@H](CCCCN)C(=O)N[C@@H](CC(C)C)C(=O)N1 (single isomer, unassigned) [PLL5-6, Ac-PL3-Lys-Leu-S5-Tyr-Leu-Leu-Asp-NHMe]    Not satisfied
